- assayed system: human TLR7 (Homo sapiens (Human), UniProt Q9NYK1)
- Sequence (Q9NYK1 27-1049): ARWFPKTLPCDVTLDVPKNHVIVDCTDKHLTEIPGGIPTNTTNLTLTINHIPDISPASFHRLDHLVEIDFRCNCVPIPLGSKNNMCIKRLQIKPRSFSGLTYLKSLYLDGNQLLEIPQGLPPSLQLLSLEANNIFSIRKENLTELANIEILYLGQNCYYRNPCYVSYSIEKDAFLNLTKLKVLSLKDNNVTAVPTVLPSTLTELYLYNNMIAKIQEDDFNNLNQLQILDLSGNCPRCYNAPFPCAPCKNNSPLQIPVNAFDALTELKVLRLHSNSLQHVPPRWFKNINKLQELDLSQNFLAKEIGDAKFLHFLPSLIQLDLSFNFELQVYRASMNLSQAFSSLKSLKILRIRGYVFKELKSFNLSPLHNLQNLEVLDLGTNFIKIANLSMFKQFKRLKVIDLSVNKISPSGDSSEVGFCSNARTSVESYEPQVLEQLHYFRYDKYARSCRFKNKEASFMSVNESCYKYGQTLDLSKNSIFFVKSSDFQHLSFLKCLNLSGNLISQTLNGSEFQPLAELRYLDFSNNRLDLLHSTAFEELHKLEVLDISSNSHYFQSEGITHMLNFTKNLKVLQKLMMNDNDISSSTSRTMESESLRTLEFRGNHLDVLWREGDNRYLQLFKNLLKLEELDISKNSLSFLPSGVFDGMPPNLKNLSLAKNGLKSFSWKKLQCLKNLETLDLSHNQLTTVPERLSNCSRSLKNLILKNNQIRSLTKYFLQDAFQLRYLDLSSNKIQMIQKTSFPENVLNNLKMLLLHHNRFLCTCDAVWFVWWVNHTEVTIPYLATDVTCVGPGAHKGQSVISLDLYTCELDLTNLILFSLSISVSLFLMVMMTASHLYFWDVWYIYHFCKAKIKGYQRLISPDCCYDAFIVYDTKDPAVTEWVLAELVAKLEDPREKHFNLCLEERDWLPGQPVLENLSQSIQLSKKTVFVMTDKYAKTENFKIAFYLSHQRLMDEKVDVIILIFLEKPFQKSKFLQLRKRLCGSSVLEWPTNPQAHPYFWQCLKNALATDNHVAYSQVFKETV
- assay notes: TLR7 inhibition reporter assay (HEK-Blue SEAP reporter, gardiquimod stimulation)
- Type: cell-based
- condition info: HEK-Blue cells overexpressing human TLR7, gardiquimod 7.5 μM
measured attribute: IC50
The answer consists of two parts: a number and, after it, its unit.

Reported IC50 of Cc1cc(-c2[nH]c3ccc(C(C)(C)C(=O)N4CC5CC4CN5)cc3c2C(C)C)ccn1 (stereo not shown) [Example 176] : 260 nM

For reference, reported IC50 for Cc1cc(-c2[nH]c3ccc(C(C)C(=O)NCCC(C)(C)O)cc3c2C(C)C)ccn1 (stereo not shown) [Example 132] stands at 947 nM

For this molecule ( Cc1cc(-c2[nH]c3ccc(C(=O)N4CCN(Cc5ncn(C)n5)CC4)cc3c2C(C)C)cc(C)n1 [Example 98] ), measured IC50 is 82 nM

Consider CCc1c(-c2ccc(OC)c(OC)c2)[nH]c2ccc(C(=O)N3CCCN(C(C)=O)CC3)cc12 [Example 35] . Its measured IC50 is 595 nM

Briefly, IC50 measured for CCc1c(-c2ccc(OC)c(OC)c2)[nH]c2ccc(C(=O)N(C)CCc3ccccn3)cc12 [Example 24] : 1790 nM

Recorded IC50 (molecule COc1ccc(-c2[nH]c3ccc(C(=O)N(C)C)cc3c2C(C)C)cc1OC [Example 3] ): 153 nM

The molecule listed as CCN(CC)C(=O)C1CCCN(CC(=O)N2CC3CN(C(=O)c4ccc5[nH]c(-c6ccc(OC)c(OC)c6)c(C(C)C)c5c4)CC3C2)C1 (single isomer, unassigned) [Example 10] shows IC50 equal to 111 nM

---

Kindly state IC50 for each of the entries shown.
- assayed system: human TLR8 (Homo sapiens (Human))
- assay notes: TLR8 inhibition reporter assay (HEK-Blue SEAP reporter, R848 stimulation)
- condition info: read-out: TLR8 IC50; HEK-Blue cells overexpressing human TLR8, R848 15.9 μM, SEAP reporter
Output spec: scalar in nM, unitless text.

Lab note: CCN(CCN(C)C)C(=O)c1ccc2[nH]c(-c3cc(C)nc(C)c3)c(C(C)C)c2c1 gave IC50 of 1.4

Memo: Cc1cc(-c2[nH]c3ccc(C(C)(C)C(=O)N(C)C4CCNCC4)cc3c2C(C)C)ccn1 , reported IC50: 63

The recorded IC50 for entry Cc1cc(-c2[nH]c3ccc(C(C)C(=O)N4CCCC5(CCCCC5N)C4)cc3c2C(C)C)ccn1 (centres unmarked) equals 70

Short answer for Cc1cc(-c2[nH]c3ccc(C(C)C(=O)N[C@@H]4CCCC[C@H]4N)cc3c2C(C)C)ccn1 (some centres unmarked) [Example 216] : IC50 was 159

According to the records, this molecule CCc1c(-c2ccc(OC)c(OC)c2)[nH]c2ccc(C(=O)N3CCC(n4c(=O)[nH]c5ccccc54)CC3)cc12 displays IC50 of 464

Consider Cc1cc(-c2[nH]c3ccc(C(=O)N4CC5CN(C)CC5C4)cc3c2C(C)C)cc(C)n1 (centres unmarked) . Its measured IC50 is 2.3

IC50 recorded for this molecule, COc1ccc(-c2[nH]c3ccc(C(=O)N4CCCN(C)CC4)cc3c2C(C)C)cc1OC , is 4

IC50 reported for this molecule Cc1cc(-c2[nH]c3ccc(C(C)C(=O)N[C@@H]4CCNC4)cc3c2C(C)C)ccn1 (some centres unmarked) : 387

---

- assayed system: human TLR8 (Homo sapiens (Human), UniProt Q9NR97)
- Sequence (Q9NR97 27-1041): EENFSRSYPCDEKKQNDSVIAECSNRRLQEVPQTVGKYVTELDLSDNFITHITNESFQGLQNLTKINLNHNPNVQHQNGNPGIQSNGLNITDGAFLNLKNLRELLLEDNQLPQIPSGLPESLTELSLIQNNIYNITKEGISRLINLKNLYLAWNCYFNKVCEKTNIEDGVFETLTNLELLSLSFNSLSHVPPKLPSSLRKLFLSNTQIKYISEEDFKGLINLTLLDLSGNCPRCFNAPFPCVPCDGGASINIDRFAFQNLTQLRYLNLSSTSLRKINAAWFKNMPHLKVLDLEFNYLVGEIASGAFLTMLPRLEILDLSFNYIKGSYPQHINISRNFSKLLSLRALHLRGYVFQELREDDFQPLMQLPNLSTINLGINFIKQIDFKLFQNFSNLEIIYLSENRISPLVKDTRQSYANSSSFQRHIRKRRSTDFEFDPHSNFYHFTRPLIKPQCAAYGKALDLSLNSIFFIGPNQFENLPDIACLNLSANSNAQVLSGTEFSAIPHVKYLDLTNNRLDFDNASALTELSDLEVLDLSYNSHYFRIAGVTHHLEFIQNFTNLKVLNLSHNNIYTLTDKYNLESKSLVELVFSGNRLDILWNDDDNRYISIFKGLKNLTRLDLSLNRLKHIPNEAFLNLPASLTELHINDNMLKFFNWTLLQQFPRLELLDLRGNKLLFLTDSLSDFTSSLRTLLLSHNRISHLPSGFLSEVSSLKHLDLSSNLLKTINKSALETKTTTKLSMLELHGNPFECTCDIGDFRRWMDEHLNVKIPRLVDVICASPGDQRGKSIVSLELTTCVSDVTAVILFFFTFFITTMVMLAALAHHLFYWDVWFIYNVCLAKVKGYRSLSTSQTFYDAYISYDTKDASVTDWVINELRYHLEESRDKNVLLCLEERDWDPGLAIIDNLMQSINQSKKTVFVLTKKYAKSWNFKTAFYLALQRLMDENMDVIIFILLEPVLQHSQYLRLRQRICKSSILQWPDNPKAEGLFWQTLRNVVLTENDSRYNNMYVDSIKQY
- assay notes: TLR8 inhibition reporter assay (HEK-Blue SEAP reporter, R848 stimulation);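 note: SEAP driven by IFN-β minimal promoter with NF-κB and AP-1 sites, 22 h incubation, compounds 0.05 nM–50 µM, inhibition scaled between agonist plus DMSO and reference inhibitor wells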
- condition info: read-out: TLR8 IC50; HEK-Blue cells overexpressing human TLR8, R848 15.9 μM, SEAP reporter
just bin them by IC50: small value (below 50 nM), mid value (50 nM to below 300 nM), large value (300 nM or more)

Query string: Band of Cc1cc(-c2[nH]c3ccc(C(=O)NC4CCN(C(C)C)CC4)cc3c2C(C)C)cc(C)n1 ?
Result string: small value

Query string: Tag the class for Cc1cc(-c2[nH]c3ccc(C(C)(C)C(=O)NC[C@H]4CCNC4)cc3c2C(C)C)ccn1
Result string: large value

Query string: Hello team, could you let me know which band the following compound falls into: Cc1cc(-c2[nH]c3ccc(C(C)(C)C(=O)NCC4CCCCN4)cc3c2C(C)C)ccn1 (stereo not shown)
Result string: small value

Query string: Quick check: band for Cc1cc(-c2[nH]c3ccc(C(C)C(=O)N(C)C4CCCNC4)cc3c2C(C)C)ccn1 (stereo not shown) [Example 209]
Result string: mid value

Query string: Which class is correct for the following compound? Cc1cc(-c2[nH]c3ccc(C(C)(C)C(=O)NC4CCCC(N)C4)cc3c2C(C)C)ccn1 (stereo not shown)
Result string: small value

Query string: State the band of Cc1cc(-c2[nH]c3ccc(C(C)(C)C(=O)NC[C@H]4CC[C@H](N)CC4)cc3c2C(C)C)ccn1
Result string: large value

Query string: # bin lookup: classify Cc1cc(-c2[nH]c3ccc(C(=O)N4CC5CN(C(=O)CN(C)C)CC5C4)cc3c2C(C)C)ccn1 (stereo not shown) by its IC50
Result string: small value

Query string: Band for the recorded IC50 of Cc1cc(-c2[nH]c3ccc(C(C)(C)C(=O)N[C@@H]4CCCNC4)cc3c2C(C)C)ccn1 ?
Result string: small value

Query string: Just checking, what class would you give COc1ccc(-c2[nH]c3ccc(C(=O)N4CC5CN(C6CCN(C)CC6)CC5C4)cc3c2C(C)C)cc1OC (stereo not shown) here?
Result string: mid value

Query string: Category of CCc1c(-c2ccc(OC)c(OC)c2)[nH]c2ccc(C(=O)N3CCN(C(C)C)CC3)cc12 :
Result string: small value

Query string: Which of the defined bands does the recorded IC50 of COc1cc(-c2[nH]c3ccc(C(=O)N(C)CCN(C)C)cc3c2C(C)C)cn2ncnc12 sit within?
Result string: small value

Query string: Quick check: band for CCc1c(-c2ccc(OC)c(OC)c2)[nH]c2ccc(C(=O)N3CCNC(=O)C3)cc12
Result string: large value

Query string: Form field 'band' for Cc1cc(-c2[nH]c3ccc(C(C)(C)C(=O)N[C@@H]4CCNC4)cc3c2C(C)C)ccn1
Result string: mid value

Query string: State the class of the compound shown: CNCCN1CC2CN(C(=O)c3ccc4[nH]c(-c5ccc(OC)c(OC)c5)c(C(C)C)c4c3)CC2C1 (stereo not shown)
Result string: mid value

Query string: Using the reported IC50, which band applies to Cc1cc(-c2[nH]c3ccc(C(=O)N4CC5CN(C(=O)CN(C)C)CC5C4)cc3c2C(C)C)cc(C)n1 (stereo not shown) ?
Result string: mid value

Query string: Band for Cc1cc(-c2[nH]c3ccc(C(C)C(=O)NC[C@@H]4CCNC4)cc3c2C(C)C)ccn1 (stereo partly shown) ?
Result string: large value

Query string: The entry to classify is Cc1cc(-c2[nH]c3ccc(C(=O)N(C)CCc4ccccc4)cc3c2C(C)C)cc(C)n1 ; which class holds it?
Result string: large value

Query string: Band for the recorded IC50 of COc1ccc(-c2[nH]c3ccc(CCC(=O)N4CC5CNCC5C4)cc3c2C(C)C)cc1OC (stereo not shown) ?
Result string: small value

Query string: Band of Cc1cc(-c2[nH]c3ccc(C(C)(C)C(=O)NC4CCC(N)CC4)cc3c2C(C)C)ccn1 (stereo not shown) ?
Result string: small value

Query string: Sort CCc1c(-c2ccc(OC)c(OC)c2)[nH]c2ccc(C(=O)N3CCCC(C(=O)N(CC)CC)C3)cc12 (stereo not shown) into one of the categories.
Result string: large value

Query string: Each compound maps to one class by IC50. Which class for Cc1cc(-c2[nH]c3ccc(C(C)(C)C(=O)NC4C[C@H]5CC[C@@H](C4)N5C)cc3c2C(C)C)ccn1 (stereo partly shown) ?
Result string: mid value

Query string: Into which bin does this compound go? CCc1c(-c2ccc(OC)c(OC)c2)[nH]c2ccc(C(=O)N3CCC[C@H]3COC)cc12
Result string: large value

Query string: Into which category would you place Cc1cc(-c2[nH]c3ccc(C(C)(C)C(=O)N4CCC(CN)C4)cc3c2C(C)C)ccn1 (stereo not shown) ?
Result string: mid value

Query string: Each compound maps to one class by IC50. Which class for Cc1cc(-c2[nH]c3ccc(C(C)(C)C(=O)N4CCC(CN)CC4)cc3c2C(C)C)ccn1 ?
Result string: large value

Query string: For Cc1cc(-c2[nH]c3ccc(C(=O)N4CCCN(C)CC4)cc3c2CC(F)F)cc(C)n1 , which IC50 bin applies?
Result string: small value

Query string: Assign a bin to Cc1cc(-c2[nH]c3ccc(C(C)C(=O)N[C@@H]4CCCC[C@H]4N)cc3c2C(C)C)ccn1 (stereo partly shown) [Example 215]
Result string: mid value

Query string: Hi there! Could you help me figure out the category for CCc1c(-c2ccc(OC)c(OC)c2)[nH]c2ccc(C(=O)N3CC4CN(CC(=O)NC)CC4C3)cc12 (stereo not shown) please?
Result string: large value

Query string: Band for the recorded IC50 of Cc1cc(-c2[nH]c3ccc(C(C)(C)C(=O)N4CCC[C@H](N)C4)cc3c2C(C)C)ccn1 ?
Result string: mid value

Query string: Bin? Cc1cc(-c2[nH]c3ccc(C(=O)N(C)Cc4cccnc4)cc3c2C(C)C)cc(C)n1
Result string: large value

Query string: Hi there! Could you help me figure out the category for Cc1cc(-c2[nH]c3ccc(C(C)(C)C(=O)N4CCCC(CCN)C4)cc3c2C(C)C)ccn1 (stereo not shown) please?
Result string: mid value

Query string: Which category fits this record: CCc1c(-c2ccnc(C)c2)[nH]c2ccc(C(=O)N3CC4CN(C(C)C)CC4C3)cc12 (stereo not shown)
Result string: small value
